Provide the recorded MFC for the entries that follow.
System: Candida albicans
Assay: Fungicidal activity against fluconazole-susceptible Candida albicans assessed as growth inhibition by sub-culturing on Agar plate and incubated for 24 to 48 hrs
Format: functional
One number for each entry, in µg/mL.

// below: answered compounds
CCOc1ccc(/C=N/NC(=O)Cn2nnc(/C=C/c3ccccc3)n2)cc1
8
O=C(Cn1nnc(/C=C/c2ccccc2)n1)N/N=C/c1cccc([N+](=O)[O-])c1
1
COc1ccc(/C=N/NC(=O)Cn2nnc(/C=C/c3ccccc3)n2)cc1OC
8
O=C(Cn1nnc(/C=C/c2ccccc2)n1)N/N=C/c1ccccc1[N+](=O)[O-]
4
Cc1ccc(/C=N/NC(=O)Cn2nnc(/C=C/c3ccccc3)n2)cc1
16
COc1ccc(/C=N/NC(=O)Cn2nnc(/C=C/c3ccccc3)n2)cc1
8

stdin: For the compound O=C(Cn1nnc(/C=C/c2ccccc2)n1)N/N=C/c1ccc([N+](=O)[O-])cc1 , what MFC is on record?
stdout: 1

###

Provide the recorded MFC for the entries that follow.
Tested on: Candida albicans
Assay: Fungicidal activity against fluconazole-resistant Candida albicans assessed as growth inhibition by sub-culturing on Agar plate and incubated for 24 to 48 hrs
Format: functional
Answers are plain numbers, in µg/mL.

O=C(Cn1nnc(/C=C/c2ccccc2)n1)N/N=C/c1ccccc1[N+](=O)[O-]
4

Okay, next one:
stdin: For the compound O=C(Cn1nnc(/C=C/c2ccccc2)n1)N/N=C/c1cccc([N+](=O)[O-])c1 , what MFC is on record?
stdout: 1

###

Tested on: Candida albicans
Test: Antifungal activity against Candida albicans SC5314 assessed as effect on fungal cell viability by measuring live cells at MIC measured after 3 hrs by Muse cell analyzer (reference value: 98.6 %)
Assay type: functional
Provide the recorded Activity for the entries that follow.
Give bare numbers, in %.

COc1ccc(/C=N/NC(=O)Cn2nnc(/C=C/c3ccccc3)n2)cc1
52.3

Batch: Activity for all items listed.
1. O=C(Cn1nnc(/C=C/c2ccccc2)n1)N/N=C/c1cccc([N+](=O)[O-])c1
2. COc1ccc(/C=N/NC(=O)Cn2nnc(/C=C/c3ccccc3)n2)cc1OC

stdout:
1: 29.6; 2: 44.8

Batch: Activity for all items listed.
1. Cc1ccc(/C=N/NC(=O)Cn2nnc(/C=C/c3ccccc3)n2)cc1
2. CCOc1ccc(/C=N/NC(=O)Cn2nnc(/C=C/c3ccccc3)n2)cc1
3. O=C(Cn1nnc(/C=C/c2ccccc2)n1)N/N=C/c1ccccc1[N+](=O)[O-]
4. O=C(Cn1nnc(/C=C/c2ccccc2)n1)N/N=C/c1ccc([N+](=O)[O-])cc1

stdout:
55.8
46.4
40.4
22.8
